Here, each record is paired with measured GI50 data.
- Tested on: SN12C
- test method notes: NCI screen antiproliferative activity, renal SN12C
Your answer is read as µM, so omit the unit and give the number.

CN(C)CCCn1c2c(c3ccc([N+](=O)[O-])cc3c1=O)C(=O)c1cccnc1-2.Cl [Compound 20, Hydrochloride] = 1
Cl.O=C1c2cccnc2-c2c1c1ccccc1c(=O)n2CCCN1CCOCC1 [Compound 21, Hydrochloride] = 5.37

input: Which GI50 value is on record for COc1cc2c3c(n(CCCN4CCOCC4)c(=O)c2cc1OC)-c1cnccc1C3=O.O=C(O)C(F)(F)F [Compound 118] ?
output: 16

input: Dear colleague, I am looking for the recorded GI50 of the following molecule: COc1cc2c3c(n(CCCNCCO)c(=O)c2cc1OC)-c1ncccc1C3=O.Cl [Compound 31, Hydrochloride]
output: 0.23

input: What value of GI50 has been reported for the following molecule? Cl.O=C1c2cccnc2-c2c1c1ccccc1c(=O)n2CCCNCCO [Compound 30, Hydrochloride]
output: 0.76

input: Query (molecule): O=C1c2cccnc2-c2c1c1ccccc1c(=O)n2CCCn1ccnc1 [Compound 28] ; field requested: GI50
output: 3.72

input: // GI50 lookup, key: COc1cc2c3c(n(CCCN(C)C)c(=O)c2cc1OC)-c1ccncc1C3=O.O=C(O)C(F)(F)F [Compound 127]
output: 8.5
